Cited source for all entries: ChEMBL document CHEMBL4828769

# Assay text: Tmax in rat at 10 mg/kg, po
# Type: ADME, organism-based
# Study conditions: in vivo

Compound: CCOC(=O)C1=C(NN2CCN(CC(F)(F)F)CC2)O/C(=C\c2c[nH]c3ncccc23)C1=O [MONZOSERTIB]
Reading unit: h
Tmax: 1

----------
# Assay text: Cmax in dog at 1 mg/kg, iv
# Assay type: ADME, organism-based, Canis lupus familiaris
# Set-up: route intravenous, dose 1 mg/kg
# Study conditions: in vivo
Measure: Cmax (ng/mL)

Entry smiles: CCOC(=O)C1=C(NN2CCN(CC(F)(F)F)CC2)O/C(=C\c2c[nH]c3ncccc23)C1=O
Measure: Cmax
Reading unit: ng/mL
Measured value: 298

----------
# Assay text: AUC(0 to infinity) in mouse at 1 mg/kg, iv
# Type: ADME, organism-based
# Parameters: route intravenous, time infinity, dose 1 mg/kg
# Study conditions: in vivo

Entry smiles: CCOC(=O)C1=C(NN2CCN(CC(F)(F)F)CC2)O/C(=C\c2c[nH]c3ncccc23)C1=O
Reading unit: ng·h/mL
AUC(0-inf): 149

----------
# Assay text: Clearance in mouse at 1 mg/kg, iv
# Format: ADME, organism-based
# Study conditions: in vivo

Entry smiles: CCOC(=O)C1=C(NN2CCN(CC(F)(F)F)CC2)O/C(=C\c2c[nH]c3ncccc23)C1=O
clearance, L/h/kg: 6.73

----------
# Assay text: Apparent permeability across apical to basolateral side in human Caco-2 cells
# Assay type: ADME, cell-based
Measure: Papp A→B (×10⁻⁶ cm/s)

Entry smiles: CCOC(=O)C1=C(NN2CCN(CC(F)(F)F)CC2)O/C(=C\c2c[nH]c3ncccc23)C1=O
Measure: Papp A→B
Measured value: 24.9

----------
# Test target: Dual specificity protein kinase CLK2 (Homo sapiens, UniProt P49760)
# Sequence (P49760 whole entry): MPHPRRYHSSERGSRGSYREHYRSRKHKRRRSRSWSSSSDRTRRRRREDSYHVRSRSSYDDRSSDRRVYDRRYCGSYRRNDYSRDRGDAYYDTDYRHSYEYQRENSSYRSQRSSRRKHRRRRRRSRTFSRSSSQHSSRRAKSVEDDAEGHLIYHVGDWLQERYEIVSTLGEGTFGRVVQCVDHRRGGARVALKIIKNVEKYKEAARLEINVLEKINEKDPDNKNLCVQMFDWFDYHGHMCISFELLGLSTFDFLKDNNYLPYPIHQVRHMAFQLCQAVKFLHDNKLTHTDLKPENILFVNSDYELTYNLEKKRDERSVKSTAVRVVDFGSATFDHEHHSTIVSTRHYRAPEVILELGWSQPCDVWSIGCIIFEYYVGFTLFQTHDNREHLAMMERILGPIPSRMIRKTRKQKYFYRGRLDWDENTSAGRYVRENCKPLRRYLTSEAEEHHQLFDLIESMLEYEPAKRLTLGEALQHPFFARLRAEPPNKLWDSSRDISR
# Assay text: Inhibition of CLK2 (unknown origin) in presence of 1 mM ATP with preincubation
pIC50: −log10 of the molar value.
Measure: pIC50

Entry smiles: CCOC(=O)C1=C(NN2CCN(CC(F)(F)F)CC2)O/C(=C\c2c[nH]c3ncccc23)C1=O
Measured value: 6.64

----------
# Assay text: AUC(0 to infinity) in rat at 10 mg/kg, po
# Type: ADME, organism-based
# Set-up: time infinity, route oral, dose 10 mg/kg
# Study conditions: in vivo

Compound: CCOC(=O)C1=C(NN2CCN(CC(F)(F)F)CC2)O/C(=C\c2c[nH]c3ncccc23)C1=O [MONZOSERTIB]
AUC(0-inf): 2410 ng·h/mL

----------
# Assay text: Cmax in mouse at 10 mg/kg, po
# Format: ADME, organism-based
# Set-up: route oral, dose 10 mg/kg
# Study conditions: in vivo

Entry smiles: CCOC(=O)C1=C(NN2CCN(CC(F)(F)F)CC2)O/C(=C\c2c[nH]c3ncccc23)C1=O
Reading unit: ng/mL
Cmax: 285

----------
# Assay text: Clearance in rat at 2 mg/kg, iv
# Format: ADME, organism-based
# Study conditions: in vivo

Entry smiles: CCOC(=O)C1=C(NN2CCN(CC(F)(F)F)CC2)O/C(=C\c2c[nH]c3ncccc23)C1=O
Reading unit: mL/min/kg
clearance: 37.7

----------
# Assay text: Half life in dog at 1 mg/kg, iv
# Type: ADME, organism-based, Canis lupus familiaris
# Study conditions: in vivo
Measure: half-life (h)

Entry smiles: CCOC(=O)C1=C(NN2CCN(CC(F)(F)F)CC2)O/C(=C\c2c[nH]c3ncccc23)C1=O
Measure: half-life
Measured value: 4.8
